assay.summary: in vivo
assay.setup: beagle, dog, iv, 0.5 mg/kg
Description: Hail-life period determined against adult Beagle dog at 0.5 mg/kg after intravenous administration; (Number of rats = 3)
readout.kind: half-life (h)
Record the value in h, omitting the unit from your answer.

Q: Entry `C[C@]1(C(=O)O)CCc2ccc(OCCCOc3ccc(OCC(F)(F)F)cc3Cl)cc2O1` : reported half-life = ?
Ans: 6.2

---

system.tested: Peroxisome proliferator-activated receptor delta (Homo sapiens, UniProt Q03181)
Sequence (Q03181 whole entry): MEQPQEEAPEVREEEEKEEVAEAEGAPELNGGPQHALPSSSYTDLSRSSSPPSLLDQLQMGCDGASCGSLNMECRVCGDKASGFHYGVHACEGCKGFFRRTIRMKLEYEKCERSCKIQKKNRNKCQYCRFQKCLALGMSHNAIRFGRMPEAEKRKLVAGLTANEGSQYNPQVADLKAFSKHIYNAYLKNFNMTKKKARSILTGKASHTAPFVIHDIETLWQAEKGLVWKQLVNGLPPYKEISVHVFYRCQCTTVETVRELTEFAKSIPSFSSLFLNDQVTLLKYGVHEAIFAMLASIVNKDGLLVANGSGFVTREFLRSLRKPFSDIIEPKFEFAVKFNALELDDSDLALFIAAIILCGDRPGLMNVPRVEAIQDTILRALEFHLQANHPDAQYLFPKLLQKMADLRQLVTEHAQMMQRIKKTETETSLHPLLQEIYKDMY
readout.kind: IC50 (µM)
Record the value in µM, omitting the unit from your answer.

Q: Entry `CC[C@]1(C(=O)O)CCc2ccc(OCCCOc3ccc(Cl)cc3Cl)cc2O1` : reported IC50 = ?
Ans: 4.1

Q: Then what about the compound O=C(O)C1CCc2ccc(OCCCOc3ccc(OCC(F)(F)F)cc3Cl)cc2O1 (centres undefined) ?
Ans: 6.9

Q: Then what about the compound `CC[C@]1(C(=O)O)CCc2ccc(OCCCOc3ccc(C(F)(F)F)cc3Cl)cc2O1` ?
Ans: 2.3

Q: Then what about the compound `CCC(C)(C)c1ccc(OCCCOc2ccc3c(c2)O[C@@](C)(C(=O)O)CC3)c(Cl)c1` ?
Ans: 14

Q: Then what about the compound `C[C@]1(C(=O)O)CCc2ccc(OCCCOc3ccc(OC(F)(F)F)cc3Cl)cc2O1` ?
Ans: 0.49

Q: Then what about the compound `CC(C)Oc1ccc(OCCCOc2ccc3c(c2)O[C@@](C)(C(=O)O)CC3)c(Cl)c1` ?
Ans: 7.4

Q: Then what about the compound `CC(C)Cc1ccc(OCCCOc2ccc3c(c2)O[C@@](C)(C(=O)O)CC3)c(Cl)c1` ?
Ans: 7.6

Q: Then what about the compound `C[C@]1(C(=O)O)CCc2ccc(OCCCOc3ccc(C4CCCC4)cc3Cl)cc2O1` ?
Ans: 10.5

---

assay.summary: in vivo
assay.setup: beagle, dog, po, 2 mg/kg
Description: Bioavailability determined against adult Beagle dog at 2 mg/kg after peroral administration
readout.kind: bioavailability
Please give the number followed by its unit.

Q: Entry `C[C@]1(C(=O)O)CCc2ccc(OCCCOc3ccc(OCC(F)(F)F)cc3Cl)cc2O1` : reported bioavailability = ?
Ans: 100%

---

assay.summary: in vivo
assay.setup: cercopithecidae, iv, 0.5 mg/kg
Description: Hail-life period determined against adult Rhesus monkey at 0.5 mg/kg after intravenous administration; (Number of rats = 3)
readout.kind: half-life (min)
Record the value in min, omitting the unit from your answer.

Q: Entry `C[C@]1(C(=O)O)CCc2ccc(OCCCOc3ccc(OCC(F)(F)F)cc3Cl)cc2O1` : reported half-life = ?
Ans: 150

---

pIC50: −log10 of the molar value.
Quick record of pIC50 values for Peroxisome proliferator-activated receptor delta (Homo sapiens).

Example compounds with recorded pIC50:
>>> endpoint_result("C[C@]1(C(=O)O)CCc2ccc(OCCCOc3ccc(Oc4ccc(F)cc4)cc3Cl)cc2O1")
5.30
>>> endpoint_result("CC[C@]1(C(=O)O)CCc2ccc(OCCCOc3ccc(C(C)C)cc3Cl)cc2O1")
"< 4.82"
>>> endpoint_result("C[C@]1(C(=O)O)CCc2ccc(OCCCOc3ccc(OCC4CC4)cc3Cl)cc2O1")
"< 4.82"
>>> endpoint_result("CC[C@]1(C(=O)O)CCc2ccc(OCCCOc3ccc(F)cc3Cl)cc2O1")
"< 4.82"
>>> endpoint_result("CC[C@]1(C(=O)O)CCc2ccc(OCCCOc3ccc(OC(F)(F)F)cc3Cl)cc2O1")
5.72
>>> endpoint_result("CC[C@]1(C(=O)O)CCc2ccc(OCCCOc3ccc(C4CCC5(CC4)CC5)cc3Cl)cc2O1")
"< 4.30"

Q: API: value(readout= pIC50, system= Peroxisome proliferator-activated receptor delta (Homo sapiens), query= `C[C@]1(C(=O)O)CCc2ccc(OCCCOc3ccc(OCC(F)(F)F)cc3Cl)cc2O1` )
Ans: < 4.82

Q: Then what about the compound `CC1(C)CCC(c2ccc(OCCCOc3ccc4c(c3)O[C@@](C)(C(=O)O)CC4)c(Cl)c2)CC1` ?
Ans: < 4.30

Q: Then what about the compound `C[C@]1(C(=O)O)CCc2ccc(OCCCOc3ccc(F)cc3Cl)cc2O1` ?
Ans: < 4.30

Hey, just so you know, these numbers are from ChEMBL document CHEMBL1140266.
